Origin of measurements: the supplement of paper PMC6555819

Parameter: PBM binding z-score. Scope: all listed entries.
tested on: PXR homodimer (NR concentration 270 nM); assay: PBM binding z-score (relative to random genomic background probes); higher = stronger binding; sequences stand for … in GC…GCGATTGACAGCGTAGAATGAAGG
Measured Endpoint: PBM binding z-score

- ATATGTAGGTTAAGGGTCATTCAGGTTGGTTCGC: 2.98
- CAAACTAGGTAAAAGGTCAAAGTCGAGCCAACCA: 1.53
- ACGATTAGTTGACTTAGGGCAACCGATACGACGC: -0.0112
- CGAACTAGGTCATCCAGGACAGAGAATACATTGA: 1.05
- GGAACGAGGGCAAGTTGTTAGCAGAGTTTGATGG: 0.561
- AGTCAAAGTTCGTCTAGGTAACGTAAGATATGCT: 1.83
- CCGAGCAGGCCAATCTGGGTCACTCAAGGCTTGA: -0.646
- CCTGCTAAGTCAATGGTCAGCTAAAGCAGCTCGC: -0.531
- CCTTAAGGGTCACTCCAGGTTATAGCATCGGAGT: 0.47
- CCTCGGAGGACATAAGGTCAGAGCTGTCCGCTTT: -0.0342
- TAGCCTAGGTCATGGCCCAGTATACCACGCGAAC: -0.224
- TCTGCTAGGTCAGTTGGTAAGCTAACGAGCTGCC: -1.11
- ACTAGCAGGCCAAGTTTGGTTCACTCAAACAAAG: 0.256
- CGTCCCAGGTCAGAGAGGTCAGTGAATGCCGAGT: 10.2
- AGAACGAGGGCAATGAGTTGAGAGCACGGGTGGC: 1.92
- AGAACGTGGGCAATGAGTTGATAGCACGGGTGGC: -0.204
- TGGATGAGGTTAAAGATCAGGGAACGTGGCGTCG: 1.07
- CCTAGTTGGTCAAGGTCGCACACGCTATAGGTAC: 1.04
- TCAGACAGTTGAAGGTAACTCAGGTACGCAGTCG: 0.165
- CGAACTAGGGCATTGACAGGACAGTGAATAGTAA: -0.0482
- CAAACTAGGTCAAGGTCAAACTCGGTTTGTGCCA: 2.6
- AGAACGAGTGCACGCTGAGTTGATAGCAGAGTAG: 0.603
- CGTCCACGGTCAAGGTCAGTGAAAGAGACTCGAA: 0.177
- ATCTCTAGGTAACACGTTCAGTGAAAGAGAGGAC: 0.206
- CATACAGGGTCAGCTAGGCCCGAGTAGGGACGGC: -0.596
- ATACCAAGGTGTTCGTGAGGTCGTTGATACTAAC: 1.6
- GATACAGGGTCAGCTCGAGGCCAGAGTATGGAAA: -0.0374
- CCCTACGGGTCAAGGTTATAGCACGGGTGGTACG: 0.417
- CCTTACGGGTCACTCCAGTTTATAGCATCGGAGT: 1.06
- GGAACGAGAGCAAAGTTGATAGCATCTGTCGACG: -0.418
- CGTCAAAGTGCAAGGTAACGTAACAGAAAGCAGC: -0.225
- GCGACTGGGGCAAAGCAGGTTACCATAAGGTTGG: -0.59
- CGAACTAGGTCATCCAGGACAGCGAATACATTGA: 1.09
- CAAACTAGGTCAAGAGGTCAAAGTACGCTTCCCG: 3.22
- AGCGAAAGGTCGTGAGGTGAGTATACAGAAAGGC: 0.0715
- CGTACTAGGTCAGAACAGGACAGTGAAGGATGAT: 0.324
- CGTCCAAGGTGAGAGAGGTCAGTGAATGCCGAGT: 2.87
- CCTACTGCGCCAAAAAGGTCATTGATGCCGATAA: 3.21
- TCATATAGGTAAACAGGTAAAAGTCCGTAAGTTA: 0.723
- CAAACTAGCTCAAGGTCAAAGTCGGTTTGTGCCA: 2.66
- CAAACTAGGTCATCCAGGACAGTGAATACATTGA: 1.49
- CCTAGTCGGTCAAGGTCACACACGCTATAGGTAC: 1.97
- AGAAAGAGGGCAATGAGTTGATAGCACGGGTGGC: 4.38
- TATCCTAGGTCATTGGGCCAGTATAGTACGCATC: 0.746
- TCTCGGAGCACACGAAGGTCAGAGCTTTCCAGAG: -1.04
- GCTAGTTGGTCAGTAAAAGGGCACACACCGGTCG: 0.0129
- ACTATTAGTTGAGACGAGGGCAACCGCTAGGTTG: 0.226
- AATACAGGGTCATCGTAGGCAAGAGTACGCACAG: 0.721
- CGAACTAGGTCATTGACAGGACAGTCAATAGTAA: 0.135
- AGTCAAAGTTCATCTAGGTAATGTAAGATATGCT: 6.34
- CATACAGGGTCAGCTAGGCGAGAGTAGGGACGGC: 0.199
